assay: in vitro; settings: human, hek293t cells
measurement_kind: viability at 48 h, 25 µM (%)
One number for each entry, in %.

# annotated cases, reported viability at 48 h, 25 µM shown
1. CC(Cl)C(=O)N1N=C(c2ccc(Cl)cc2)CC1c1ccco1 (stereo not drawn) [5-H18]	78.1
2. C=CC(=O)N(CC)CC(=O)N1CCCC1c1ccc(F)cc1C (stereo not drawn) [2-F08]	74.7
3. C=CC(=O)NC1(Cn2cccn2)CC(F)(F)C1 [2-J17]	54.5
4. C=CCN(Cc1cccs1)C(=O)CCl [5-B06]	0.0461

Would you mind listing viability at 48 h, 25 µM for each of the following compounds?
1. N#CC(=Cc1ccc(OC(F)F)cc1)C(=O)N1CCCCC1 [8-J20]
2. CCC(NC(=O)CCl)c1cccc(OC)n1 (stereo not drawn) [7-D08]

1: 82.8; 2: 1.69
